Reference for the values: the nanobody polyreactivity screen of Harvey et al. (2022)

test: yeast display, Sf9 membrane polyspecificity reagent, FACS + sequencing; frameworks hold sequencing errors

>  <seq string>
QVQLVESGGGLVQAGGSLRLSCAASGSIFFSNTMGWYRQAPGKERELVASITGDSSTNYADSVKGRFTISRDNAKNTVYLQMNSLKPEDTAVYYCNAGRVLRYVGHYSGDLEYWGQGTQVTVSS

>  <polyreactivity (PSR sort gate)>
low polyreactivity

$$$$
>  <seq string>
QVQLVESGRGLVQAGGSLRLRCASSGRTFSSYAMGWSRQAPGKARELVAAITKRGGNTYYADSVKGRFTISRDNAKNTVYLQMNSLNPEDTAVYYCAAGWERFRNYNYWGQVTQVTVSS

>  <polyreactivity (PSR sort gate)>
high polyreactivity

$$$$
>  <seq string>
QVQLVESGGGIDQAGGSLRLSCAASGNIFDYYAMGWYRQAPGKEREFVAAISWSGARTYYADSVKGRFTISRDNAKNTVYLQMNRLKPEDTAVYYCAGGQSWRKNDYRYDYWGQGTQVTVSS

>  <polyreactivity (PSR sort gate)>
high polyreactivity

$$$$
>  <seq string>
QVQLVESGGGLVQAGGSLRLSCAASGRIFRHNTMGWYRQAPGKERELVAGITASGGDTYYADSVKGRFTISRDNAKNTVYLDMNSLKPEDTAVYYCATSQYGYRSWPGLYYWGQGTQVTVSS

>  <polyreactivity (PSR sort gate)>
low polyreactivity

$$$$
>  <seq string>
QVQLHESGVGLVQAGGGLRLSCAATGSISSTGFMGWYRQAPGKEREPVAAIAPGTTTYYADSVKGRFTISRDNAKNTVYLQMNSLRPEDTAVYYCAVFTDNRVAFLYWGQGTQVTVSS

>  <polyreactivity (PSR sort gate)>
low polyreactivity

$$$$

###

assay: yeast display, Sf9 membrane polyspecificity reagent, FACS + sequencing; frameworks hold sequencing errors
measurement name: polyreactivity (PSR sort gate)

>  <seq string>
QVQLVESGGGLVQAGGSLRLICAASGFTFRYYAMGWYRQAPGTERELVAAISAGGGSTYYADSVKGRFTISRDNAKNTVYLQMNSLKPEETAVYYCAAAGARPGYDYWGQGTLVTVSS

>  <endpoint value>
high polyreactivity

$$$$
>  <seq string>
QVQLVESGGGLVLAAGSLRLSCAASGFIFGSYAMGWYRQAPGKERELFAAISRSGGRTYYADSVKGRFTISRDNAKNTVYLQMNSLKPEDTAVYYCAAVHLLVYPTYDYWGQGTQVTVSS

>  <endpoint value>
high polyreactivity

$$$$
>  <seq string>
QVQLVDSGGGLVQAGGSLRLSCAASGRTFAFNYAMGWYRQAPGKERELVAAISSSGTRTRYADSVKGRFTISRDNAKNTVYLQMNSLKPEDTAVYYCSKRSLGIGRSNYWGQGTQVTVSS

>  <endpoint value>
high polyreactivity

$$$$
>  <seq string>
QVQLVESGGGLVQAGVSIRLSCAASGSIYENNAMGRYRQAPGKERELVAGITWSGGSTRYADSVKGRFTISRDNAKNTVYLQMNSLKPEDTAVYYCATDDFTYVVAKDGDYWGQGTQVTVSS

>  <endpoint value>
low polyreactivity

$$$$
>  <seq string>
QVQLVESGGGLVQAGGSLRLSSAASGRTFYWYAMGWYRQAPGKQRELVASISIDGRTYYADSVKGRFTISRDNAKNNVYLQMNSLKPEDTAVYYCNVVRYYPYRPTTKRGGGYWGQGTQVSVSS

>  <endpoint value>
high polyreactivity

$$$$
>  <seq string>
QVQLVESGGGLVQAGGSLRLSCAASGRIFLGNAMGWYRQAPGNERELVADITTDGSTYYADSVKGRFTISRDNAKNTVYLQMNSLKPEVTAVYYCAAGEHPSFRSSYKYDYWGQGTQVTVSS

>  <endpoint value>
low polyreactivity

$$$$
>  <seq string>
QVQLVESGGGLVQAGGSLRLSCAASGFTFTYYVMGWYRQAPGKERELVAAISVSGGSTYYADSVKGRFTITRDNAKNTVYLQMNSLKPEDTAVYYCAARSPFYSYTPGYEYWGQGTQVTVSS

>  <endpoint value>
high polyreactivity

$$$$
>  <seq string>
QVQLVESGGGLVQAGGSLRLSCAASGRTFYLNAMGWYRQAPGKEREFVARITWSGGSTYYADSVKGRFTISRDNAKNTVYLQMNSLKPEDTAVYYCIRLSSYHMDYWGQGTQVTVSS

>  <endpoint value>
high polyreactivity

$$$$
>  <seq string>
QVQLVESGGGLVQAGGSLRLSCAASGYTSYTYTMGWYRQAPGKDRELVAAISRRSDSTYSDSVKGRVTISRDNAKNSVYLQMNSLKPEDTAVYYCAAVRVSYRSLSKSYYWGQGTQVTVSS

>  <endpoint value>
high polyreactivity

$$$$
>  <seq string>
QVQLVESGGGLVQAGGSLRLSCAASGNIFDIYAMGWYRQAPGKERELVAAISSGGSTYYADSVKGRFTISRDNAKNTVYFQMNSLKPEDTAVYYCAESRVGYYRYEYWGQGTQVTVSS

>  <endpoint value>
low polyreactivity

$$$$
>  <seq string>
QVQLVDSGGGLVQAGGSLRLSCAASGSIFSVYSMGGNRQATGKERELVASISRTGTTNYADSVKGSFTISRDNAKNTVYLQMNSLKPEDTAVFYCATDFTDWDVFLIKEFGYDYWGQGTQVTVSS

>  <endpoint value>
low polyreactivity

$$$$
